Reported self-cleavage kobs at 640 uM GlcN6P values for a set of variants
B1: glmS ribozyme (parent)
chain: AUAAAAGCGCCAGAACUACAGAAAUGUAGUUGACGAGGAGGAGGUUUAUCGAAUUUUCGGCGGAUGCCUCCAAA

Variants of: B1
Assay Remarks: self-cleavage kobs at 640 uM GlcN6P; higher = faster cleavage; RNA array
Condition Notes: with glucosamine-6-phosphate
This sample holds only a part of the variants without activity.
Reported Endpoint: self-cleavage kobs at 640 uM GlcN6P

Variant Name	Reported Endpoint	Reported Measurement
C61A C67G	self-cleavage kobs at 640 uM GlcN6P	2.63e-05 s⁻¹
A14G C71G	self-cleavage kobs at 640 uM GlcN6P	0.00058 s⁻¹
G41C U65G	self-cleavage kobs at 640 uM GlcN6P	< 1e-05 s⁻¹
G13C C16U A36G U69C	self-cleavage kobs at 640 uM GlcN6P	< 1e-05 s⁻¹
A12U G43C	self-cleavage kobs at 640 uM GlcN6P	< 1e-05 s⁻¹
A15C U55A	self-cleavage kobs at 640 uM GlcN6P	0.00128 s⁻¹
A42G C58A A64U	self-cleavage kobs at 640 uM GlcN6P	< 1e-05 s⁻¹
A15G U47G	self-cleavage kobs at 640 uM GlcN6P	0.00171 s⁻¹
A15C G38U C58A	self-cleavage kobs at 640 uM GlcN6P	< 1e-05 s⁻¹
G40C C61U	self-cleavage kobs at 640 uM GlcN6P	< 1e-05 s⁻¹
C10A A48G U49G	self-cleavage kobs at 640 uM GlcN6P	< 1e-05 s⁻¹
